species: Rattus norvegicus; test: Open TG-GATES - Regimen: Single; type: toxicity, organism-based, Sprague-Dawley; design: regimen Single, gender Male, age 6 weeks; conditions: in vivo, po, 0 mg/kg, 9 h, tissue Plasma, route gavage, dose level Control
measured.parameter: gamma-GTP

Cc1cccc(Nc2ccccc2C(=O)O)c1C :: 1 IU/L
CN(C)[C@@H]1C(O)=C(C(N)=O)C(=O)[C@@]2(O)C(O)=C3C(=O)c4c(O)cccc4[C@@](C)(O)[C@H]3C[C@@H]12 :: 1.4 IU/L
COc1cc([C@@H]2c3cc4c(cc3[C@@H](O[C@@H]3O[C@@H]5CO[C@@H](C)O[C@H]5[C@H](O)[C@H]3O)[C@H]3COC(=O)[C@H]23)OCO4)cc(OC)c1O [ETOPOSIDE] :: 0.8 IU/L
